All figures here come from the supplement of paper PMC7877785.

Kindly supply the reported self-splicing fitness (ln) values for the records listed here.
# experiment description: self-splicing fitness, log relative to wild type (ln ratio); higher = more splicing; Tetrahymena group I intron in knt gene, E. coli kanamycin selection, DiMSum; sequences stand for … in CUCUCU…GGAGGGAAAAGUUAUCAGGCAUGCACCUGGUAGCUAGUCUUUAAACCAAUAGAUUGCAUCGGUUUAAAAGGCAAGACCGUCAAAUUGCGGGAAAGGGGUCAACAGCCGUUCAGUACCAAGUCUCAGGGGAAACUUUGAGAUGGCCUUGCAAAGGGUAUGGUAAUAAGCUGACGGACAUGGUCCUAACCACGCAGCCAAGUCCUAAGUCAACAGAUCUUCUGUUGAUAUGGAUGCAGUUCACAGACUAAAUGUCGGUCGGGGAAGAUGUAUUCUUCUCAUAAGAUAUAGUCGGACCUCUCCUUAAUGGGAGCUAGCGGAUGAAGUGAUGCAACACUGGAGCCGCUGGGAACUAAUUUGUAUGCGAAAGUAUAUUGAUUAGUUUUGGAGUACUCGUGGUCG;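 note: selection with 25 µg/mL kanamycin versus none on LB agar overnight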
# experimental context: 30 °C
One number for each entry.

The following sequences have reported results that may help.
polymer sequence	self-splicing fitness (ln)
UCAUAGCAAUAUUACGUGCG	-1.26
GUAAAGCAAUAUUACGGUCU	-0.245
CAUGAGCAAUAUUACGACUC	-3.85
UAUGAGCAAUAUUACGGCAA	-2.46
GUUAAGCAAUAUUACGACCG	-2.84

Take each entry in turn and give its self-splicing fitness (ln).
1. CAAGAGCAAUAUUACGUCGA
2. ACUAAGCAAUAUUACGUUAC
3. CUAGAGCAAUAUUACGCUCU
4. ACAAAGCAAUAUUACGAAUA
5. UCCUAGCAAUAUUACGUGGA
6. ACUCAGCAAUAUUACGGGUC

1: -3.3; 2: -3.81; 3: -2.43; 4: -3.62; 5: -2.37; 6: -2.95

Take each entry in turn and give its self-splicing fitness (ln).
1. AGCGAGCAAUAUUACGUGCC
2. AAAGAGCAAUAUUACGUAUA
3. CAGCAGCAAUAUUACGUCCU

[-3.37, -3.45, -2.31]

Take each entry in turn and give its self-splicing fitness (ln).
1. AUAAAGCAAUAUUACGCCUA
2. AAAGAGCAAUAUUACGUCAA
3. CGGGAGCAAUAUUACGUUUU
4. CGUCAGCAAUAUUACGUGGG

1. -0.422
2. -3.31
3. -2.19
4. -2.31

Take each entry in turn and give its self-splicing fitness (ln).
1. ACGUAGCAAUAUUACGACGU
2. UAUAAGCAAUAUUACGGUAA
3. AACCAGCAAUAUUACGACUC

1: -2.97; 2: -2.02; 3: -0.597

Take each entry in turn and give its self-splicing fitness (ln).
1. AAGGAGCAAUAUUACGCAGU
2. AUUAAGCAAUAUUACGUACC
3. ACUAAGCAAUAUUACGUUGC
4. GCCGAGCAAUAUUACGAUGU
5. UGUAAGCAAUAUUACGAAAG
6. GACUAGCAAUAUUACGGACG
7. AAAAAGCAAUAUUACGACAG
8. GACUAGCAAUAUUACGAUGC

[-3.65, -2.05, -3.69, -0.691, -3.6, -1.4, -1.17, -0.221]

Take each entry in turn and give its self-splicing fitness (ln).
1. UCGGAGCAAUAUUACGUCGU
2. UAGCAGCAAUAUUACGGCUC
3. GGUCAGCAAUAUUACGGUGU

1. -1.37
2. -0.698
3. -1.44

Take each entry in turn and give its self-splicing fitness (ln).
1. GAUAAGCAAUAUUACGAUCG
2. CGUAAGCAAUAUUACGUUCA
3. UCACAGCAAUAUUACGGUUC
4. GUAUAGCAAUAUUACGUCGU

[-0.76, -1.64, -2.91, -2.22]

Take each entry in turn and give its self-splicing fitness (ln).
1. UUGCAGCAAUAUUACGAGGU
2. AACCAGCAAUAUUACGAUCA
3. UCGGAGCAAUAUUACGUGCA
4. CGAUAGCAAUAUUACGACUG
5. AAUGAGCAAUAUUACGGAGC
6. GGAUAGCAAUAUUACGAGUA
7. CGGGAGCAAUAUUACGAAUG

-3.94
-0.638
-0.902
-0.203
-3.43
-2.54
-3.6
